B1: HDV Ribozyme (parent)
chain: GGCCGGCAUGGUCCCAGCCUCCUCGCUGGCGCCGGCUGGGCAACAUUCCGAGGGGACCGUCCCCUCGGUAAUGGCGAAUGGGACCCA

- Variants of: B1
- Assay method text: self-cleavage, relative activity (ratio to wild type); higher = more cleavage; co-transcriptional
Measurement type: self-cleavage
Please state the value as a number alone, without comment.

# Monomer sequence, self-cleavage
measured = [
    ("GGCCGGCAUGGUCCCGACCUCCUCGCUGGCGCCGGCUGGGCAACAUUCCGAGGGGACCGUCCCCUCGGUAAUGGCGAAUGGGACCCA", 0.617),
    ("GGCCGGCAUGGUCCCAGCCUCCUCGCUGGCGCCGGCUGGGCAACAUUCCGGGGGGACCGUCCCCUCGGUAAGGGCGAAUGGGACCCA", 0.615),
    ("GGCCGGCAUGGUCCCAGCCCCCUCGCUGGCGCCGGCUGGGCAACAUUCCGAGGGGACCGUCCCCUCGAUAAUGGCGAAUGGGACCCA", 0.111),
    ("GGCCGGCAUGGUGCCAGCCUCCUCGCUGGCGCCGGCUGGGCAACAUUCCGAGGGGACCAUCCCCUCGGUAAUGGCGAAUGGGACCCA", 0.148),
    ("GGCCGGCAUGGUCCCAGCCUCCUCGCUGGCGCCGGCUGGGCAACAUUUCGAGGGGACCGUCCCCUCGGUAAUGGCGAAUGGGAUCCA", 0.742),
]

I am curious: what self-cleavage value has been reported for GGCCGGCAUGGUCCUAGUCUCCUCGCUGGCGCCGGCUGGGCAACAUUCCGAGGGGACCGUCCCCUCGGUAAUGGCGAAUGGGACCCA ? 0.44

Field entry: GGCGGGCAUGGUCCCAGCCUCCUCGCUGGCGCCGGCUGGGCAACAUUCCGAGGAGACCGUCCCCUCGGUAAUGGCGAAUGGGACCCA 0.288

Field entry: GGCCGGCAUGGUCCCAGCCUCCUCGCUGGCGCCGGCUGGGCAACGUCCCGAGGGGACCGUCCCCUCGGUAAUGGCGAAUGGGACCCA 0.787

Field entry: GGCCGGCAUGGUCCCAGCCUCCUCGCUGGCGCCGGCUGGGUAACAUUGCGAGGGGACCGUCCCCUCGGUAAUGGCGAAUGGGACCCA 0.955

Field entry: GGCCGGCAUGGUCCCAGCCUCCUCGCUGGCGCCGGCUGGGCAACAUUCCGAGGGGACCGUGCCCUCAGUAAUGGCGAAUGGGACCCA 0.743

Field entry: GGCCGGCAUGGUCCCAGCCUGCUCGCUGGCGCCGGCUGGGCAACAUUCCGAGGGGACCGUUCCCUCGGUAAUGGCGAAUGGGACCCA 0.032

Each recorded value in this set is attributed to the RNAGym collection of RNA variant scans (doi:10.7554/elife.80360).
